Data provenance: ChEMBL document CHEMBL2311251

- Tested system: Bifunctional epoxide hydrolase 2 (Homo sapiens)
- Sequence (P34913 whole entry): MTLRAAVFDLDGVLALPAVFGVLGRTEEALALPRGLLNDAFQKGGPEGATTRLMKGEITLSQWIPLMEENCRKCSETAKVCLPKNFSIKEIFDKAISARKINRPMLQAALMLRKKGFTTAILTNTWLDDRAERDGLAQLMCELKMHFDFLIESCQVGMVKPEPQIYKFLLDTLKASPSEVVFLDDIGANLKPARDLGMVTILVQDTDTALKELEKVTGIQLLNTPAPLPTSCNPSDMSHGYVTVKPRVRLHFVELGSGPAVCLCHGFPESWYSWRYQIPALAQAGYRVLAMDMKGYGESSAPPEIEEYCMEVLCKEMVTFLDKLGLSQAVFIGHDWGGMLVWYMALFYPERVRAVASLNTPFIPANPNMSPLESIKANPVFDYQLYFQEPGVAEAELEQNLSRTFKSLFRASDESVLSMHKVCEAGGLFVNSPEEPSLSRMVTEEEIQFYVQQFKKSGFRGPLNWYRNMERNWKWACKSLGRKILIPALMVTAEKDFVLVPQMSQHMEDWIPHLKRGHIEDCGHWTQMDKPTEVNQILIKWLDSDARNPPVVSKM
- Protocol notes: Inhibition of human sEH assessed as 6-methoxy-2-naphthaldehyde generation preincubated for 10 before addition of cyano(2-methyl-oxynaphthalen-6-yl)methyl trans-(3-phenyloxyran-2-yl) methyl carbonate by fluorescence analysis
pIC50: −log10 of the molar value.
We use 8 as the dividing line for pIC50: on or above the line is T, below is F.

>>> discrete_label("Cc1ccc(S(=O)(=O)N2CCC(C(=O)Nc3ccccc3C)CC2)c(C)c1")
"F"
>>> discrete_label("Cc1ccc(S(=O)(=O)N2CCC(C(=O)Nc3ccc(C(F)(F)F)cc3)CC2)c(C)c1")
"F"
>>> discrete_label("Cc1ccc(S(=O)(=O)N2CCC(C(=O)Nc3ccc(O)cc3)CC2)c(C)c1")
"T"
>>> discrete_label("Cc1ccc(S(=O)(=O)N2CCC(C(=O)NCC(C)C)CC2)c(C)c1")
"F"

* * *

- Tested system: Bifunctional epoxide hydrolase 2 (Homo sapiens)
- Protocol notes: Inhibition of human sEH assessed as 6-methoxy-2-naphthaldehyde generation preincubated for 10 before addition of cyano(2-methyl-oxynaphthalen-6-yl)methyl trans-(3-phenyloxyran-2-yl) methyl carbonate by fluorescence analysis
pIC50: −log10 of the molar value.
Property measured: pIC50

>>> data_value("Cc1ccc(S(=O)(=O)N2CCC(C(=O)Nc3ccc4cc(C(=O)O)ccc4c3)CC2)c(C)c1")
9.22
>>> data_value("Cc1ccc(S(=O)(=O)N2CCC(C(=O)Nc3ccc4ccccc4c3)CC2)c(C)c1")
8.08
>>> data_value("Cc1ccc(S(=O)(=O)N2CCC(C(=O)Nc3ccccc3O)CC2)c(C)c1")
8.92
>>> data_value("Cc1ccc(S(=O)(=O)N2CCC(C(=O)Nc3cccc4cnccc34)CC2)c(C)c1")
7.64
>>> data_value("COC(=O)c1ccc2cc(NC(=O)C3CCN(S(=O)(=O)c4ccc(C)cc4C)CC3)ccc2c1")
6.96
>>> data_value("Cc1ccc(S(=O)(=O)N2CCC(C(=O)Nc3cc(Cl)cc(Cl)c3)CC2)c(C)c1")
7.60
>>> data_value("Cc1ccc(S(=O)(=O)N2CCC(C(=O)Nc3cnc4ccccc4c3)CC2)c(C)c1")
8.64
>>> data_value("Cc1ccc(S(=O)(=O)N2CCC(C(=O)Nc3ccc4c(c3)OCO4)CC2)c(C)c1")
8.28
